As shown below, each of these binders has a reported T½ value.
- experimental.target: T1, human BCMA (human, UniProt Q02223 1-54)
- T1 construct: also called huBCMA; hBCMA
- T1 sequence: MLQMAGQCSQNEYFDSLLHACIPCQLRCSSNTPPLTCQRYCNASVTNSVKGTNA
- run.description: SPR, immobilised IgG, 37° C
Respond with the figure and its unit, in that order.

Examples from the recorded data:
binder: L3.PY/L3.KY/H2.YQ (antibody, V domains shown, IgG in the assay) VH: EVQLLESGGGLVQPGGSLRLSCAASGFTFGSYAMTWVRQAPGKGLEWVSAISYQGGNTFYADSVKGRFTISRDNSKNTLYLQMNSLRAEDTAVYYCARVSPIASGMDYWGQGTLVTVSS VL: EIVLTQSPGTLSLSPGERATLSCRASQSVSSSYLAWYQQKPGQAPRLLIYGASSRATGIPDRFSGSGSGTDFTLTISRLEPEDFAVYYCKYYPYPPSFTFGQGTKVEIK
T½: 7.02 min
--
binder: L3.PY/L3.KF/H3.YA (antibody, V domains shown, IgG in the assay) VH: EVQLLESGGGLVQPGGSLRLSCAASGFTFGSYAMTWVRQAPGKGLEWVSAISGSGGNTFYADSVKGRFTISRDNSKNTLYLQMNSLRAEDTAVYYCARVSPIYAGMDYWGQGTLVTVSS VL: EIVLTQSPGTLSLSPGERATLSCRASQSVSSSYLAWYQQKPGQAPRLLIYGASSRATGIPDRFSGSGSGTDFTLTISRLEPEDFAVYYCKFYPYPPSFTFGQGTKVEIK
T½: 7.85 min
--
binder: L3.PY/L1.FF/H3.YA (antibody, V domains shown, IgG in the assay) VH: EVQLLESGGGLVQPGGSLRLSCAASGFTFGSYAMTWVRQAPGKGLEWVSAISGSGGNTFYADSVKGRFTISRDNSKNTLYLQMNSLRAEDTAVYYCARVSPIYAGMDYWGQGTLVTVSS VL: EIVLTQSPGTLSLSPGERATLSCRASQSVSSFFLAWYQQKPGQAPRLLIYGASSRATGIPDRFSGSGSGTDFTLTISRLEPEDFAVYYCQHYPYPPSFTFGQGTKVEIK
T½: 6.41 min

### Prompt Could you please provide reported T½ for L3.PY/P6E01 (antibody, V domains shown, IgG in the assay) VH: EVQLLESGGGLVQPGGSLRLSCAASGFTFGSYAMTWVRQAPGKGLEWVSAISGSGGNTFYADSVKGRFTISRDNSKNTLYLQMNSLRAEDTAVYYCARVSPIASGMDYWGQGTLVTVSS VL: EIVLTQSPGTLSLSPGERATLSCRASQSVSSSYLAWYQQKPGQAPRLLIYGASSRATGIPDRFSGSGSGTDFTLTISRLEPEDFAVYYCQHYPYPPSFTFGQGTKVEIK ? Thanks!
### Response 5.91 min

### Prompt Could you please provide reported T½ for L3.PY/L1.FF/H3.AE (antibody, V domains shown, IgG in the assay) VH: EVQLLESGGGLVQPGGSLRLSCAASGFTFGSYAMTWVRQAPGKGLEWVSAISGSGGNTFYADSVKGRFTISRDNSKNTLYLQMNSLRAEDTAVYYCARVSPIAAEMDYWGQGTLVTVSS VL: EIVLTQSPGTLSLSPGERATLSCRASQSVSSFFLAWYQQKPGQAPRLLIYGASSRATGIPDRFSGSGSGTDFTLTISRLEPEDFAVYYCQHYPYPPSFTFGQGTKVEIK ? Thanks!
### Response 4.39 min

The origin of these recorded values is patent US20240018252A1.
